target: Bromodomain-containing protein 4 (Homo sapiens, UniProt O60885); assay: Inhibition of human recombinant BRD4 BD2 (349 to 460 residues) extracted from Escherichia coli BL21 (DE3) at 10 uM incubated for 2 hrs by TR-FRET assay relative to control
Property Name: inhibition (%)

Use these answered entries as a reference point.
COc1cccc(/C=C/c2nc3cc(OC)cc(OC)c3c(=O)[nH]2)c1 | 67
COc1cc(OC)c2c(=O)[nH]c(C(=O)c3ccc(F)cc3)nc2c1 | 52

a = COc1cc(OC)c2c(=O)[nH]c(C(=O)c3cc(F)ccc3F)nc2c1
b = COc1cc(OC)c2c(=O)[nH]c(C=C(c3ccccc3)c3ccccc3)nc2c1
(Q) // returns a or b , whichever has the lower inhibition # answer = label of selected item
(A) a
